Hello, the source for this data is ChEMBL document CHEMBL5375960, in case you need it.

Provide the reported Activity of each item.
target: Eukaryotic peptide chain release factor GTP-binding subunit ERF3A (Homo sapiens); experiment: Induction of ePL tagged GSPT1 degradation in human DF15 cells assessed as remaining activity incubated for 20 hrs by luminescence based assay relative to control; format: cell-based; design: concentration or dose not given beside the values
Give bare numbers, in %.

Guide cases for Activity, answers given:
{"columns": ["Molecule", "Units", "Activity"],
 "data": [
  ["Cc1ccc(NC(=O)NCc2ccc(C(=O)NC3CCC(=O)NC3=O)cc2)cc1Cl (centres undefined)", "%", 33.7],
  ["Cc1ccc(NC(=O)NCc2ccccc2C(=O)NC2CCC(=O)NC2=O)cc1Cl (centres undefined)", "%", 88.4],
  ["O=C1CC[C@H](N2Cc3c(OCc4ccc(CN5CCOCC5)cc4)cccc3C2=O)C(=O)N1 [IBERDOMIDE]", "%", 88.8],
  ["Cc1ccc(NC(=O)NCc2cccc(C(=O)NC3CCC(=O)NC3=O)c2)cc1Cl (centres undefined)", "%", 3.1],
  ["O=C1CCN(c2ccc(OCc3ccc(CN4CCOCC4)cc3)cc2)C(=O)N1", "%", 97.1]
]}

Each molecule below has a reported value. Please supply its Activity.
1. Cc1ccc(NC(=O)NCc2ccc(C3CCC(=O)NC3=O)cc2)cc1Cl (centres undefined)
2. Cc1ccc(NC(=O)NCc2ccc(N3CCC(=O)NC3=O)cc2)cc1Cl
3. O=C1CCN(c2cccc(OCc3ccc(CN4CCOCC4)cc3)c2)C(=O)N1
4. O=C1CCC(c2cccc(OCc3ccc(CN4CCOCC4)cc3)c2)C(=O)N1 (centres undefined)
5. O=C1CCC(c2ccc(OCc3ccc(CN4CCOCC4)cc3)cc2)C(=O)N1 (centres undefined)
6. O=C1CCC(n2cnc3ccc(OCc4ccc(CN5CCOCC5)cc4)cc32)C(=O)N1 (centres undefined)
7. Cc1ccc(NC(=O)NCc2ccc3c(c2)CN(C2CCC(=O)NC2=O)C3=O)cc1Cl (centres undefined)

1: 73.4; 2: 93.8; 3: 94; 4: 96.6; 5: 97.1; 6: 99; 7: 3.9

Each molecule below has a reported value. Please supply its Activity.
1. Cc1ccc(NC(=O)NCc2cccc(C3CCC(=O)NC3=O)c2)cc1Cl (centres undefined)
2. Cc1ccc(NC(=O)NCc2cccc(N3CCC(=O)NC3=O)c2)cc1Cl

[92.8, 95.2]

----------
target: Zinc finger protein Aiolos (Homo sapiens, UniProt Q9UKT9); assay: Induction of ePL tagged Aiolos degradation in human DF15 cells incubated for 4 hrs by luminescence based assay
Metric Name: EC50

{"columns": ["Compound", "Metric Name", "Value Observed"],
 "data": [
  ["Nc1cccc(N[C@H]2CCC(=O)NC2=O)c1", "EC50", "> 10 µM"],
  ["Nc1cccc2c1C(=O)N(C1CCC(=O)NC1=O)C2=O (stereo unspecified) [POMALIDOMIDE]", "EC50", "0.02 µM"],
  ["Cc1ccc(NC(=O)NCc2ccc(C3CCC(=O)NC3=O)cc2)cc1Cl (stereo unspecified)", "EC50", "> 10 µM"],
  ["O=C1CCC(c2ccccc2)C(=O)N1 (stereo unspecified)", "EC50", "> 10 µM"],
  ["Cn1nc(C2CCC(=O)NC2=O)c2cccc(N)c21 (stereo unspecified)", "EC50", "> 10 µM"]
]}

Given the compound Nc1cccc(NC2CCC(=O)NC2=O)c1 (stereo unspecified) , what is its reported EC50?
> 10 µM

----------
biological target: Protein cereblon/DNA damage-binding protein 1 (Homo sapiens)
Provide the reported pIC50 of each item.
Give bare numbers, as −log10 of the molar value.

Each molecule below has a reported value. Please supply its pIC50.
1. Nc1ccc2c(c1)ncn2C1CCC(=O)NC1=O (stereo unspecified)
2. Cc1ccc(NC(=O)NCc2ccc(C(=O)NC3CCC(=O)NC3=O)cc2)cc1Cl (stereo unspecified)
3. Nc1ccc2ncn(C3CCC(=O)NC3=O)c2c1 (stereo unspecified)
4. O=C1CCC(c2ccc(OCc3ccc(CN4CCOCC4)cc3)cc2)C(=O)N1 (stereo unspecified)
5. Cc1ccc(NC(=O)NCc2cccc(N3CCC(=O)NC3=O)c2)cc1Cl

1: 6.23; 2: 5.47; 3: 6.13; 4: 5.72; 5: 5.07

----------
target: Protein cereblon/DNA damage-binding protein 1 (Homo sapiens)
pIC50: −log10 of the molar value.
pIC50 below 6 gives 0.0; pIC50 at or above it gives 1.0.

These recorded examples may help you get a feel for the data.
{"columns": ["Compound", "Assigned Label"],
 "data": [
  ["Nc1cccc(NC2CCC(=O)NC2=O)c1 (stereo not drawn)", 0.0],
  ["Cc1ccc(NC(=O)NCc2cccc(C(=O)NC3CCC(=O)NC3=O)c2)cc1Cl (stereo not drawn)", 0.0],
  ["Cc1ccc(NC(=O)NCc2ccc(C3CCC(=O)NC3=O)cc2)cc1Cl (stereo not drawn)", 1.0],
  ["Cn1nc(N2CCC(=O)NC2=O)c2ccccc21", 0.0]
]}

Would you say O=C1CCC(n2cnc3ccc(OCc4ccc(CN5CCOCC5)cc4)cc32)C(=O)N1 (stereo not drawn) shows pIC50 at minimum 6?
1.0

Would you say `O=C1CCN(c2cccc(OCc3ccc(CN4CCOCC4)cc3)c2)C(=O)N1` shows pIC50 at minimum 6?
0.0

----------
Target: UniProtKB P10275
Sequence (whole entry): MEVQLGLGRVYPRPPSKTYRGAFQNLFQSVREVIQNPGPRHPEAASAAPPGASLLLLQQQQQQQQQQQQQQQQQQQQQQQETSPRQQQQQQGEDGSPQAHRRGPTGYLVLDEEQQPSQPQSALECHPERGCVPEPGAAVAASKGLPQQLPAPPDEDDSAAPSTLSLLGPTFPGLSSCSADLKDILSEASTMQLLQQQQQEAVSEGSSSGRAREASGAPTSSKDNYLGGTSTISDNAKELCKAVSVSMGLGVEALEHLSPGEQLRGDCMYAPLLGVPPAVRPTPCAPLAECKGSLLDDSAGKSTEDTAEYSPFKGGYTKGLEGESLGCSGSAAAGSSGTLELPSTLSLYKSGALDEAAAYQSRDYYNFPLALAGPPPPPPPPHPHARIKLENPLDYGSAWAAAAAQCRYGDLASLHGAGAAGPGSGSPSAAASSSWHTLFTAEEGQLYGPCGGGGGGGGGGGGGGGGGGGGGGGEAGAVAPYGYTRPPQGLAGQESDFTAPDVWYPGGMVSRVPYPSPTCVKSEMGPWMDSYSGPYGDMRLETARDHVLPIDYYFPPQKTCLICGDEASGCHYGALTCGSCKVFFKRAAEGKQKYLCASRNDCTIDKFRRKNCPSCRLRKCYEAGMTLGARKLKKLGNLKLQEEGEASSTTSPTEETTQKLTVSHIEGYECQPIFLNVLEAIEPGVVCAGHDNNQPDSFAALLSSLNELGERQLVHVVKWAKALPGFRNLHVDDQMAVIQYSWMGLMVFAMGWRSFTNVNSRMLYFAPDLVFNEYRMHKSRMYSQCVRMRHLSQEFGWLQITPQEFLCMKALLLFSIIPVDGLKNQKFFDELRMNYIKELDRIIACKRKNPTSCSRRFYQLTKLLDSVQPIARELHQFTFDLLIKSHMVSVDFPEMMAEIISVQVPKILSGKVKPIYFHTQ
Assay: Induction of androgen receptor degradation in human VCaP cells incubated for 24 hrs by ELISA
Format: cell-based
Active and inactive are the calls of the source. The calls are words filed in the database; no cut-off is given here.
Your reply should match one of these outcome classes. t = active, f = inactive

{"columns": ["Molecule", "Assigned Label"],
 "data": [
  ["Nc1cccc(C2CCC(=O)NC2=O)c1 (centres undefined)", "t"]
]}

Dear colleague, could you share the recorded outcome for Nc1ccc(C2CCC(=O)NC2=O)cc1 (centres undefined) when you have a moment?
t

Dear colleague, could you share the recorded outcome for `Nc1cccc(N2CCC(=O)NC2=O)c1` when you have a moment?
f

Dear colleague, could you share the recorded outcome for `Nc1ccc(N2CCC(=O)NC2=O)cc1` when you have a moment?
f

----------
molecular target: Zinc finger protein Aiolos (Homo sapiens); assay: Induction of ePL tagged Aiolos degradation in human DF15 cells incubated for 4 hrs by luminescence based assay
Metric Name: EC50

Guide cases for EC50, answers given:
{"columns": ["Compound", "Value Observed"],
 "data": [
  ["O=C1CCC(c2cccc(OCc3ccc(CN4CCOCC4)cc3)c2)C(=O)N1 (stereo unspecified)", "> 10 µM"],
  ["O=C1CCC(c2ccc(OCc3ccc(CN4CCOCC4)cc3)cc2)C(=O)N1 (stereo unspecified)", "> 10 µM"],
  ["Nc1ccc(NC2CCC(=O)NC2=O)cc1 (stereo unspecified)", "> 10 µM"],
  ["Cc1ccc(NC(=O)NCc2ccc3c(c2)CN(C2CCC(=O)NC2=O)C3=O)cc1Cl (stereo unspecified)", "0.005 µM"],
  ["O=C1CCN(c2ccccc2)C(=O)N1", "> 10 µM"]
]}

--- query ---
Given the compound COc1ccc(C2CCC(=O)NC2=O)cc1 (stereo unspecified) , what is its reported EC50?
> 10 µM
